System: COLO 205 colorectal tumor cells
Experimental Details: Tumor cell viability inhibition assay (CellTiter-Glo 2.0, 72 hours)
Assay type: cell-based
Condition Summary: COLO 205 cell viability
Items are presented alongside their recorded IC50.

Given the entry Cc1cc(-c2cc(Cl)ccc2OCCn2c(C)nc3c(c2=O)CC(N(CC(F)(F)F)C2CC2)CC3)c2scc(C(=O)NS(C)(=O)=O)c2n1 (single isomer, unassigned) [Compound 309] , what IC50 was observed with COLO 205 colorectal tumor cells? 5 to 20 µM

* * *

Items are presented alongside their recorded IC50.
System: COLO 205 colorectal tumor cells
Experimental Details: Tumor cell viability inhibition assay (CellTiter-Glo 2.0, 72 hours)
Assay type: cell-based
Condition Summary: Homo sapiens, COLO 205, 72 h, COLO 205 cell viability

Solved entries:
>>> value_measured("Cc1cc(-c2cc(Cl)ccc2OCCn2c(C)nc3c(c2=O)CC(N(C)C24CC(C)(C2)C4(F)F)CC3)c2scc(C(=O)O)c2n1 (centres unmarked) [Compound 318]")
"5 to 20 µM"
>>> value_measured("Cc1cc(-c2cc(Cl)ccc2OCCn2c(C)nc3c(c2=O)CC(N(C)C2(C4CCC4)CC2)CC3)c2scc(C(=O)NS(C)(=O)=O)c2n1 (single isomer, unassigned) [Compound 231]")
"5 to 20 µM"
>>> value_measured("Cc1cc(-c2cc(Cl)ccc2OCCn2c(C)nc3c(c2=O)CC(N2CCC(C4CC(F)(F)C4)CC2)CC3)c2scc(C(=O)O)c2n1 (centres unmarked) [Compound 156]")
"< 5 µM"
>>> value_measured("Cc1cc(-c2cc(Cl)ccc2OCCn2c(C)nc3c(c2=O)C[C@@H](N2CC[C@@H](C(F)F)C2)CC3)c2scc(C(=O)O)c2n1 (single isomer, unassigned) [Compound 120]")
"< 5 µM"

For the molecule CO[C@@H]1CCN([C@H]2CCc3nc(C)n(CCOc4ccc(Cl)cc4-c4cc(C)nc5c(C(=O)O)csc45)c(=O)c3C2)C1 (single isomer, unassigned) [Compound 43] , what IC50 is on record? < 5 µM

* * *

Tested on: COLO 205 colorectal tumor cells
Experimental Details: Tumor cell viability inhibition assay (CellTiter-Glo 2.0, 72 hours)
Format: cell-based
Condition Summary: Homo sapiens, COLO 205, 72 h, COLO 205 cell viability
pIC50: −log10 of the molar value.
Recorded Metric: pIC50

Solved entries:
>>> value_measured("Cc1cc(-c2cc(Cl)ccc2OCCn2c(C)nc3c(c2=O)C[C@@H](N2CCC(c4ncn(C)n4)CC2)CC3)c2scc(C(=O)O)c2n1 (single isomer, unassigned) [Compound 463]")
"> 5.30"
>>> value_measured("Cc1nc2c(c(=O)n1CC#Cc1ccc(Cl)cc1-c1ccnc3c(C(=O)O)csc13)CC(N1CC(F)C1)CC2 (centres unmarked) [Compound 355]")
"4.70 to 5.30"
>>> value_measured("Cc1cc(-c2cc(Cl)ccc2OCCn2c(C)nc3c(c2=O)CC(N(C2CC2)C2CC2)CC3)c2scc(C(=O)NS(C)(=O)=O)c2n1 (single isomer, unassigned) [Compound 291]")
"> 5.30"
>>> value_measured("Cc1cc(-c2cc(Cl)ccc2OCCn2c(C)nc3c(c2=O)CC(N2CCC(OC(F)(F)F)CC2)CC32CC2)c2scc(C(=O)NS(C)(=O)=O)c2n1 (single isomer, unassigned) [Compound 579]")
"> 5.30"
>>> value_measured("Cc1cc(-c2cc(Cl)ccc2OCCn2c(C)nc3c(c2=O)C[C@H](N(C)CC2CC(F)(F)C2)CC32CC2)c2scc(C(=O)O)c2n1 (single isomer, unassigned) [Compound 568]")
"> 5.30"
>>> value_measured("Cc1cc(-c2cc(Cl)ccc2OCCn2c(C)nc3c(c2=O)C[C@H](N2CCCCC(F)(F)C2)CC3)c2scc(C(=O)O)c2n1 (single isomer, unassigned) [Compound 469]")
"> 5.30"

For the compound Cc1cc(-c2cc(Cl)ccc2OCCn2c(C)nc3c(c2=O)CC(N2CCN(C)C(=O)C2)CC3)c2scc(C(=O)NS(C)(=O)=O)c2n1 (centres unmarked) [Compound 88] , what pIC50 is on record? < 4.70

For the compound Cc1cc(-c2cc(Cl)ccc2OCCn2c(C)nc3c(c2=O)CC(N(C)C2CC(F)(F)C2)CC3)c2scc(C(=O)O)c2n1 (centres unmarked) [Compound 40] , what pIC50 is on record? > 5.30

For the compound Cc1cc(-c2cc(Cl)ccc2OCCn2c(C)nc3c(c2=O)CC(N2CC4(CCN(C)CC4)C2)CC3)c2scc(C(=O)O)c2n1 (centres unmarked) [Compound 22] , what pIC50 is on record? < 4.70

For the compound Cc1cc(-c2cc(Cl)ccc2OCCn2c(C)nc3c(c2=O)C[C@@H](N2CCC(c4nc(C(F)(F)F)cs4)CC2)CC3)c2scc(C(=O)O)c2n1 (single isomer, unassigned) [Compound 578] , what pIC50 is on record? > 5.30

For the compound Cc1cc(-c2ccc(Cl)cc2OCCn2c(C)nc3c(c2=O)C[C@H](N(C)[C@H]2C[C@@](C)(O)C2)CC3)c2scc(C(=O)O)c2n1 (single isomer, unassigned) [Compound 229] , what pIC50 is on record? < 4.70
